molecular target: human mGlu7 (Homo sapiens); test: mGlu7 assay on HEK-expressing human mGlu7: fluorescent cell-based Ca2+ mobilization (FLIPR384), inhibition of EC80 L-AP4 response; settings: HEK-293 cells expressing hmGlu7, EC80 L-AP4 stimulation; mean of at least three independent experiments in duplicate; read-out: Ca^2+ Flux (mean IC50)
Sequence (Q14831 35-922 isoform Q14831-2 limits assumed): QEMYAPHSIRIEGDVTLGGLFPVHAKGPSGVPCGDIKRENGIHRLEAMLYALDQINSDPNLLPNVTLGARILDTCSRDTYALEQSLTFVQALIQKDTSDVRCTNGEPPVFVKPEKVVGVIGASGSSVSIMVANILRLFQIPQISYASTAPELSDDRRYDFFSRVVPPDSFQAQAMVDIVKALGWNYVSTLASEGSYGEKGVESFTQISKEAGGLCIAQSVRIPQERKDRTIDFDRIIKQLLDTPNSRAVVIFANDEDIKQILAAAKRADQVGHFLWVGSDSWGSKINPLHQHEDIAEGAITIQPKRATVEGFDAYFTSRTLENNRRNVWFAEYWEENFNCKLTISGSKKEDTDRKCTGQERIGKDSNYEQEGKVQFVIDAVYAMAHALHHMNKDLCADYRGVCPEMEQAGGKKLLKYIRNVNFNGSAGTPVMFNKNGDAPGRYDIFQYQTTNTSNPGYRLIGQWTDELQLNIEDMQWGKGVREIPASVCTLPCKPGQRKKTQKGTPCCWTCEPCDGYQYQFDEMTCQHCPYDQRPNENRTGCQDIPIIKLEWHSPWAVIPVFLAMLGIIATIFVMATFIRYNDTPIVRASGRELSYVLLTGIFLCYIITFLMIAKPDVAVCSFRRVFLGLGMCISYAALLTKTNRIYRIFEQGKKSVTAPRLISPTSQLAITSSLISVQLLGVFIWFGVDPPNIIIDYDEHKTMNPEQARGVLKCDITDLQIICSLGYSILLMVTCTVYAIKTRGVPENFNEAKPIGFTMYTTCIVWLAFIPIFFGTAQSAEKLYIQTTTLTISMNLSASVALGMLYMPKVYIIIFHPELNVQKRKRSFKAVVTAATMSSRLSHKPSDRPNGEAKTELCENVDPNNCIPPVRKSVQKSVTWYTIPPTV

Compound	IC50
COCC(C)(C)Nc1cnc(-n2ncc3cc(-c4cccc(OC)c4C)ccc3c2=O)nc1 [1-109]	< 100 nM
CC(=O)c1ccc(-n2ncc3cc(-c4ccc(C)cc4C)ccc3c2=O)cc1 [1-12]	100 to 1000 nM
O=c1c2ccc(-c3cccc(N4CCC4)c3)cc2cnn1-c1ncc(N2CCC(O)C2)cn1 (stereo not drawn) [1-83]	100 to 1000 nM
COc1cccc(-c2ccc3c(=O)n(-c4ncc(N5CCC(O)CC5)cn4)ncc3c2)c1C [1-72]	< 100 nM
COc1cnc(-n2ncc3cc(-c4cccc5c4CCN5C)ccc3c2=O)nc1 [1-57]	< 100 nM
Cc1c(-c2ccc3c(=O)n(-c4ccccn4)ncc3c2)cccc1N1CCC1 [1-77]	< 100 nM
O=c1c2ccc(-c3cccc(N4CCC4)c3)cc2cnn1-c1ncc(F)cn1 [1-76]	< 100 nM
COc1cccc(-c2ccc3c(=O)n(-c4ncc(C)cn4)ncc3c2)c1C [1-54]	< 100 nM
COc1cccc(-c2ccc3c(=O)n(-c4ncc(N5CCCC(N(C)C)C5)cn4)ncc3c2)c1C (stereo not drawn) [1-103]	100 to 1000 nM
